Provide the recorded IC50 for the entries that follow.
Target: Fatty-acid amide hydrolase 1 (Homo sapiens)
Sequence (O00519 whole entry): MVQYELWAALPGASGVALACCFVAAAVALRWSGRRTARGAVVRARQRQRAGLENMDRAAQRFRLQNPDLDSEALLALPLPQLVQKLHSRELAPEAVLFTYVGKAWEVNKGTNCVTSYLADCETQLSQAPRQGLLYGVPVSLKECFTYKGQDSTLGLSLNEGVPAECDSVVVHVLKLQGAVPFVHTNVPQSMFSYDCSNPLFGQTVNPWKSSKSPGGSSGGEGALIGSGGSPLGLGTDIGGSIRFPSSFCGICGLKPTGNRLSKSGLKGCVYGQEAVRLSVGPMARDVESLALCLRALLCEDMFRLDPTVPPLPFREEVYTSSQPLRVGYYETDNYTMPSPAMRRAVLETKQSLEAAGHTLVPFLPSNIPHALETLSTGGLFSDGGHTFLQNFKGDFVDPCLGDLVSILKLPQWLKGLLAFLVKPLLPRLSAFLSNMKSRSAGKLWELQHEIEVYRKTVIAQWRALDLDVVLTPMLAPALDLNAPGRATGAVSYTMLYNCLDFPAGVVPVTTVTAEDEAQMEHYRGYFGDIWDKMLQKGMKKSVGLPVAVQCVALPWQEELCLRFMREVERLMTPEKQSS

Ask | Check the records and state IC50 for CCOC(=O)C(CC)CCCCCn1c(C)nc(-c2ccccc2)c1-c1ccccc1 (centres undefined) [D, L mixtures]
Reply | 9.9 µM

Ask | Return IC50 for the following molecule: CCOC(=O)CCCCCCCn1c(CC)nc(-c2ccccc2)c1-c1ccccc1
Reply | 0.031 µM

Ask | Write down IC50 measured for item CCOC(=O)C(C)CCCCCn1c(C)nc(-c2ccccc2)c1-c1ccccc1 (racemic) [D, L mixtures]
Reply | 0.13 µM

Ask | Supply IC50 value. Item: CCOC(=O)C(CCCCCn1c(C)nc(-c2ccccc2)c1-c1ccccc1)C(C)C (racemic) [D, L mixtures]
Reply | > 100 µM
